Origin of measurements: ChEMBL document CHEMBL2434905

Molecular target: D(1B) dopamine receptor (Homo sapiens, UniProt P21918)
Assay: Displacement of [3H]SCH23390 from human recombinant dopamine D5 receptor expressed in HEK cells after 90 mins by scintillation counting analysis

SMILES STR: Cl.NC1=Nc2ccc(Cl)cc2CN1
Ki: > 10 µM

----------
Target: 5-hydroxytryptamine receptor 4 (Homo sapiens)
Sequence (Q13639 whole entry): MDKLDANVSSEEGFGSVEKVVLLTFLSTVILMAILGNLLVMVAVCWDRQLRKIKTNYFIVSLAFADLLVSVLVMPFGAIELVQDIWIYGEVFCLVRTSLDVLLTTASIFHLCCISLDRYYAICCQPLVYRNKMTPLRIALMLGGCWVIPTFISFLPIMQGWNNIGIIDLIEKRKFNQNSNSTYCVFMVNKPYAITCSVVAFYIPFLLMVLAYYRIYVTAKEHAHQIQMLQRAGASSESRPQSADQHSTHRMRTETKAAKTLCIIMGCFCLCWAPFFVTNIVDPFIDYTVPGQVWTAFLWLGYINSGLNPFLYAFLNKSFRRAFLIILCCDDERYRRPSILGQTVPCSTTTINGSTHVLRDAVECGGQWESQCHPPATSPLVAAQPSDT
Test: Displacement of [[3H]GR113808 from human recombinant 5-HT4 receptor after 90 mins by scintillation counting analysis
pKi: −log10 of the molar value.

SMILES STR: Cl.NC1=Nc2ccc(Cl)cc2CN1
EXPERIMENTAL SYSTEM: 5-hydroxytryptamine receptor 4 (Homo sapiens)
pKi: < 5.00

----------
Molecular target: Muscarinic acetylcholine receptor M3 (Homo sapiens, UniProt P20309)
Sequence (P20309 whole entry): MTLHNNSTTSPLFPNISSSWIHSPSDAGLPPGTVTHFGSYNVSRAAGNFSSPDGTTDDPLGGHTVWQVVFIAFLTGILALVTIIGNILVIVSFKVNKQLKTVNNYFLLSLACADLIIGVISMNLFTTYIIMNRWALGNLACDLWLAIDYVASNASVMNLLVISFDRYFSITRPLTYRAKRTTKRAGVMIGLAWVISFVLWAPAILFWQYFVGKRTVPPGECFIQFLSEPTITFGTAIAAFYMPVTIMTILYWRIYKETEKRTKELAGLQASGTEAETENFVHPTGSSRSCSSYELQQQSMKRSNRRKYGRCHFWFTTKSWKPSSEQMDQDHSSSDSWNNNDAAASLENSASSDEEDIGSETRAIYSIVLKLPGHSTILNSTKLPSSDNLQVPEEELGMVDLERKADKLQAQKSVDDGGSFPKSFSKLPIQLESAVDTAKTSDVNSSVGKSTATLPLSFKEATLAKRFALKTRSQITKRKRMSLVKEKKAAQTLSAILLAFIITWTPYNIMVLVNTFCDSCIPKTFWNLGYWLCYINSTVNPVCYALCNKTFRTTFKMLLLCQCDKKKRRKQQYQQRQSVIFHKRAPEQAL
Test: Binding affinity to human recombinant muscarinic M3 receptor expressed in CHO cells after 90 mins by radioligand displacement assay
pKi: −log10 of the molar value.

SMILES STR: Cl.NC1=Nc2ccc(Cl)cc2CN1
pKi: < 5.00

----------
Experiment: Lipophilicity, log P of the compound by HPLC analysis
Type: physicochemical

SMILES STR: Cl.NC1=Nc2ccc(Cl)cc2CN1
logP: 1.86

----------
Target: 5-hydroxytryptamine receptor 1E (Homo sapiens)
Sequence (P28566 whole entry): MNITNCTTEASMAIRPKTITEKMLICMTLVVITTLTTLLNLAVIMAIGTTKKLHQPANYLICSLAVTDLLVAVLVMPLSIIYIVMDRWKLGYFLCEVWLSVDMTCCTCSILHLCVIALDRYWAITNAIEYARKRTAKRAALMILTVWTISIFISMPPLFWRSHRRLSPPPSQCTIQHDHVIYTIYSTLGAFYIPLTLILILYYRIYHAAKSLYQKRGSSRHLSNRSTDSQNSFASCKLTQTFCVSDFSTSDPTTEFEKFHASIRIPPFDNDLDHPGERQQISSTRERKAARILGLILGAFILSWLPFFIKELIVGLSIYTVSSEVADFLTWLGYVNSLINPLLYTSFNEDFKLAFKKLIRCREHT
Experiment: Displacement of [3H]5-HT from human recombinant 5-HT1E receptor expressed in HEK cells after 90 mins by scintillation counting analysis
MEASURED ATTRIBUTE: Ki

SMILES STR: Cl.NC1=Nc2ccc(Cl)cc2CN1
MEASURED ATTRIBUTE: Ki
RESULT: > 10 µM

----------
Target: 5-hydroxytryptamine receptor 5A (Homo sapiens, UniProt P47898)
Sequence (P47898 whole entry): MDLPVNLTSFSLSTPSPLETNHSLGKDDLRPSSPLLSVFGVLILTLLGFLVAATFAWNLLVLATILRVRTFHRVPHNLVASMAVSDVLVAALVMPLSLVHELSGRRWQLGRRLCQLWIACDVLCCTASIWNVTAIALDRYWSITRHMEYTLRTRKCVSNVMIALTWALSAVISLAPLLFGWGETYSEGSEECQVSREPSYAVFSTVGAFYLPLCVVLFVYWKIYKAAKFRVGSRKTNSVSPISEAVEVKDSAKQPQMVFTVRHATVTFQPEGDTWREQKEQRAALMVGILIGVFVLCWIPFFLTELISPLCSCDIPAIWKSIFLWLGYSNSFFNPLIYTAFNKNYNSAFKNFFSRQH
Experiment: Displacement of [3H]LSD from human recombinant 5-HT5A receptor expressed in CHO cells after 90 mins by scintillation counting analysis
Assay type: cell-based
pKi: −log10 of the molar value.

SMILES STR: Cl.NC1=Nc2ccc(Cl)cc2CN1
EXPERIMENTAL SYSTEM: 5-hydroxytryptamine receptor 5A (Homo sapiens, UniProt P47898)
pKi: 6.33

----------
Molecular target: UniProt P21728
Test: Displacement of [3H]SCH23390 from human recombinant dopamine D1 receptor expressed in HEK cells after 90 mins by scintillation counting analysis

SMILES STR: Cl.NC1=Nc2ccc(Cl)cc2CN1
Ki: > 10 µM

----------
Molecular target: Muscarinic acetylcholine receptor M4 (Homo sapiens, UniProt P08173)
Sequence (P08173 whole entry): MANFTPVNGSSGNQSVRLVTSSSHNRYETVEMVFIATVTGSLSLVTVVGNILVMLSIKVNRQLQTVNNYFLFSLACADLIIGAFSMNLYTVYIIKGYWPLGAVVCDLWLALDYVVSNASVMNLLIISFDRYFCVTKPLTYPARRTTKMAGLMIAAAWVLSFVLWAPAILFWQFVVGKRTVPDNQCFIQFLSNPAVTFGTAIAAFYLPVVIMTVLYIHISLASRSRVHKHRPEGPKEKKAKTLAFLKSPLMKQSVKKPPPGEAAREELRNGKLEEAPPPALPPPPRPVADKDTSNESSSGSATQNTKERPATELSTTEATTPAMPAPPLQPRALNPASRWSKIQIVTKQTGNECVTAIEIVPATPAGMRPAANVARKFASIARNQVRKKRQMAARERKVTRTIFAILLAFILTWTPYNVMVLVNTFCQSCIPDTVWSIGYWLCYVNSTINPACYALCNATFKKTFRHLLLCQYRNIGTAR
Assay: Binding affinity to human recombinant muscarinic M4 receptor expressed in CHO cells after 90 mins by radioligand displacement assay
pKi: −log10 of the molar value.
MEASURED ATTRIBUTE: pKi

SMILES STR: Cl.NC1=Nc2ccc(Cl)cc2CN1
RESULT: < 5.00

----------
Molecular target: 5-hydroxytryptamine receptor 1B (Homo sapiens, UniProt P28222)
Sequence (P28222 whole entry): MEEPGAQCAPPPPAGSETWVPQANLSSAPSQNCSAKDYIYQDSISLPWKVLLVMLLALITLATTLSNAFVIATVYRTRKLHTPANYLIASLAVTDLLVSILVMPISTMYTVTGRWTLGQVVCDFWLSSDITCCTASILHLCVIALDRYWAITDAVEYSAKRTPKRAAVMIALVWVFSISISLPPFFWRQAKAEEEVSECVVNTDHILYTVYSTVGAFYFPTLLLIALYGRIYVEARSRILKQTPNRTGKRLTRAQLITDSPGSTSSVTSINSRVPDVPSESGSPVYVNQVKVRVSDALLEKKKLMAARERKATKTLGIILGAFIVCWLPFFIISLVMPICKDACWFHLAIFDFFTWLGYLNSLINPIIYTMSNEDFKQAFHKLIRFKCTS
Test: Displacement of [3H]5-CT from human recombinant 5-HT1B receptor expressed in HEK cells after 90 mins by scintillation counting analysis

SMILES STR: Cl.NC1=Nc2ccc(Cl)cc2CN1
EXPERIMENTAL SYSTEM: 5-hydroxytryptamine receptor 1B (Homo sapiens, UniProt P28222)
Ki: > 10 µM

----------
Molecular target: 5-hydroxytryptamine receptor 2B (Homo sapiens)
Sequence (P41595 whole entry): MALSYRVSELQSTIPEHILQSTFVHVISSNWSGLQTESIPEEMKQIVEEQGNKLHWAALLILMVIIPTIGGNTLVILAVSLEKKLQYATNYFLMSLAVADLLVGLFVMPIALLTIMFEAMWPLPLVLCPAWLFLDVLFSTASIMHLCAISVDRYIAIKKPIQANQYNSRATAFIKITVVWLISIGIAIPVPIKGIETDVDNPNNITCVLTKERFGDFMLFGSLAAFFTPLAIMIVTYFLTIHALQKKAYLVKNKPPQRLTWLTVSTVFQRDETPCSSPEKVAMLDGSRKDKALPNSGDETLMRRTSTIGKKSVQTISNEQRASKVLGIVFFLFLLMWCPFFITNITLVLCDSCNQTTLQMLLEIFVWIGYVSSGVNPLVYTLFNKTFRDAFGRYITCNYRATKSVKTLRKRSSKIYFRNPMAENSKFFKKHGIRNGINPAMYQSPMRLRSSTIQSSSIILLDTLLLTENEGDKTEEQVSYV
Assay: Displacement of [3H]LSD from human recombinant 5-HT2B receptor expressed in HEK cells after 90 mins by scintillation counting analysis
pKi: −log10 of the molar value.

SMILES STR: Cl.NC1=Nc2ccc(Cl)cc2CN1
pKi: 6.25

----------
Target: Muscarinic acetylcholine receptor M2 (Homo sapiens)
Assay: Binding affinity to human recombinant muscarinic M2 receptor expressed in CHO cells after 90 mins by radioligand displacement assay
pKi: −log10 of the molar value.
MEASURED ATTRIBUTE: pKi

SMILES STR: Cl.NC1=Nc2ccc(Cl)cc2CN1
RESULT: < 5.00

----------
Biological target: 5-hydroxytryptamine receptor 3A (Homo sapiens, UniProt P46098)
Sequence (P46098 whole entry): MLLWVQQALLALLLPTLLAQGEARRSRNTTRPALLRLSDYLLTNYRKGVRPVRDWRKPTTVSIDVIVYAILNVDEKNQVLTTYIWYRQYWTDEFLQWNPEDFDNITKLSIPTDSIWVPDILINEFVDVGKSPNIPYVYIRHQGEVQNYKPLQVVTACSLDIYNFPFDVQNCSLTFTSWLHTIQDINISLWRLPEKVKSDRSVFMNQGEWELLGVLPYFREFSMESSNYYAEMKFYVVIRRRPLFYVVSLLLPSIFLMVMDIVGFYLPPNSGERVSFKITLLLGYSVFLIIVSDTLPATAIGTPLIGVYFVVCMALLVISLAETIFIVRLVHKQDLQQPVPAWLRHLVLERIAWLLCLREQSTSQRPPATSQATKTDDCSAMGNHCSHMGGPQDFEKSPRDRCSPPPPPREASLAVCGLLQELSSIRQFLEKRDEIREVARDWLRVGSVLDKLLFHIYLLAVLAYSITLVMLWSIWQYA
Assay: Displacement of [3H]GR65630 from human 5-HT3A receptor expressed in HEK293 cells by liquid scintillation counting analysis
Format: cell-based

COMPOUND: CN1CCN2c3ncccc3Cc3ccccc3C2C1 (stereo unspecified)
EXPERIMENTAL SYSTEM: 5-hydroxytryptamine receptor 3A (Homo sapiens, UniProt P46098)
Ki: 2.9 µM

----------
Molecular target: Delta-type opioid receptor (Homo sapiens, UniProt P41143)
Test: Displacement of [3H]DADLE from human recombinant delta opioid receptor expressed in HEK cells after 90 mins by scintillation counting analysis
pKi: −log10 of the molar value.
MEASURED ATTRIBUTE: pKi

SMILES STR: Cl.NC1=Nc2ccc(Cl)cc2CN1
MEASURED ATTRIBUTE: pKi
RESULT: < 5.00

----------
Biological target: Alpha-2C adrenergic receptor (Homo sapiens)
Sequence (P18825 whole entry): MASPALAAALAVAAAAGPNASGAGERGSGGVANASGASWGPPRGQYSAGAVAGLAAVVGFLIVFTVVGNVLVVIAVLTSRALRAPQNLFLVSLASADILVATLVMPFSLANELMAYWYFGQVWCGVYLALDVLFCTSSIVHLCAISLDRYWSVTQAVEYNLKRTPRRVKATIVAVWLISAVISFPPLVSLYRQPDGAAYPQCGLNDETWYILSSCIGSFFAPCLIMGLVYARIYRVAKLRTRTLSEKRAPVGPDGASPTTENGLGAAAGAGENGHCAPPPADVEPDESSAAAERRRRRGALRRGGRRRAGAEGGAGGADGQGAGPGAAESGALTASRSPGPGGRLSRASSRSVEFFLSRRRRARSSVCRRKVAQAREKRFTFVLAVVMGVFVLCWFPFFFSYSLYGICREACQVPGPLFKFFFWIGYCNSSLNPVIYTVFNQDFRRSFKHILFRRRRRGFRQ
Assay: Displacement of [3H]Rauwolscine from human recombinant alpha2C-adrenoceptor expressed in MDCK cells after 90 mins by scintillation counting analysis

SMILES STR: Cl.NC1=Nc2ccc(Cl)cc2CN1
EXPERIMENTAL SYSTEM: Alpha-2C adrenergic receptor (Homo sapiens)
VALUE UNIT: µM
Ki: 0.84

----------
Target: UniProtKB Q9Y5N1
Assay: Displacement of [3H]-alpha-methylhistamine from human recombinant histamine H3 receptor expressed in HEK cells after 90 mins by scintillation counting analysis
pKi: −log10 of the molar value.

SMILES STR: Cl.NC1=Nc2ccc(Cl)cc2CN1
EXPERIMENTAL SYSTEM: UniProtKB Q9Y5N1
pKi: < 5.00

----------
Molecular target: 5-hydroxytryptamine receptor 7 (Homo sapiens, UniProt P34969)
Experiment: Displacement of [3H]LSD from human recombinant 5-HT7 receptor expressed in HEK cells after 90 mins by scintillation counting analysis
Assay type: cell-based, HEK293
pKi: −log10 of the molar value.

SMILES STR: Cl.NC1=Nc2ccc(Cl)cc2CN1
pKi: 5.94

----------
Assay: Displacement of [3H]Flunitrazepam from BZP receptor in rat brain after 90 mins by scintillation counting analysis
Assay type: tissue-based

SMILES STR: Cl.NC1=Nc2ccc(Cl)cc2CN1
Ki: > 10 µM

----------
Biological target: Neuronal acetylcholine receptor; alpha4/beta2 (Homo sapiens, UniProt P17787+P43681)
Assay: Displacement of [3H]-epibatidine from human alpha4beta2 nAChR transfected in HEK293 cells by scintillation counting analysis

SMILES STR: Cl.NC1=Nc2ccc(Cl)cc2CN1
EXPERIMENTAL SYSTEM: Neuronal acetylcholine receptor; alpha4/beta2 (Homo sapiens, UniProt P17787+P43681)
Ki: > 10 µM

----------
Target: 5-hydroxytryptamine receptor 1A (Homo sapiens, UniProt P08908)
Sequence (P08908 whole entry): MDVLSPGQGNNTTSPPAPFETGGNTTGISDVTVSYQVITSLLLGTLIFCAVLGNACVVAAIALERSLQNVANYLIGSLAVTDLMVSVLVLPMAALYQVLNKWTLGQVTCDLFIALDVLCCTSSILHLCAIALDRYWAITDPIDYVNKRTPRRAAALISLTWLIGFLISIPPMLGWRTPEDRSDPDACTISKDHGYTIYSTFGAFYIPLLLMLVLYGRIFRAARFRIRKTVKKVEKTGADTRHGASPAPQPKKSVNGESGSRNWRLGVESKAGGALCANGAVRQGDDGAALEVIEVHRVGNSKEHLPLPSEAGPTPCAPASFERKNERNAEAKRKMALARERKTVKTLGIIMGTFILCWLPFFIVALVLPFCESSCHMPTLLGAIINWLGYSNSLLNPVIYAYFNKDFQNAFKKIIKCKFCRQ
Assay: Displacement of [3H]Way100635 from human recombinant 5-HT1A receptor expressed in CHO cells after 90 mins by scintillation counting analysis
MEASURED ATTRIBUTE: Ki

SMILES STR: Cl.NC1=Nc2ccc(Cl)cc2CN1
EXPERIMENTAL SYSTEM: 5-hydroxytryptamine receptor 1A (Homo sapiens, UniProt P08908)
RESULT: > 10 µM

----------
Target: Histamine H1 receptor (Homo sapiens)
Assay: Displacement of [3H]Pyrilamine from human recombinant histamine H1 receptor expressed in HEK cells after 90 mins by scintillation counting analysis

SMILES STR: Cl.NC1=Nc2ccc(Cl)cc2CN1
Ki: > 10 µM

----------
Molecular target: UniProt:P28223
Experiment: Displacement of [3H]Ketanserin from human recombinant 5-HT2A receptor expressed in HEK cells after 90 mins by scintillation counting analysis
pKi: −log10 of the molar value.

SMILES STR: Cl.NC1=Nc2ccc(Cl)cc2CN1
pKi: 5.88

----------
Target: D(4) dopamine receptor (Homo sapiens)
Sequence (P21917 whole entry): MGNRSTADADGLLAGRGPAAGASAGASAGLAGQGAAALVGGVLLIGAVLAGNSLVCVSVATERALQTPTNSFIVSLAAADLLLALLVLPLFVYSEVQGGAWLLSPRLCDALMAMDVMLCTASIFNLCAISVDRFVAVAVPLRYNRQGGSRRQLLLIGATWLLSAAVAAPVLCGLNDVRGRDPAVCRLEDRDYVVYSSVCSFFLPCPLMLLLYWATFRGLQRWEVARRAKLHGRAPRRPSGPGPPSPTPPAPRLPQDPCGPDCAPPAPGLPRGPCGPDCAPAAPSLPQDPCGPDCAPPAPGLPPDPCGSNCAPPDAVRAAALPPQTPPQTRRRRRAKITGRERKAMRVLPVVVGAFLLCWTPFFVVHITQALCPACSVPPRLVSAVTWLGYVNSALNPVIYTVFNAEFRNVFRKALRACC
Test: Displacement of [3H]N-methylspiperone from dopamine D4 receptor (unknown origin) after 90 mins by scintillation counting analysis
Details: read-out: Ki
MEASURED ATTRIBUTE: Ki

SMILES STR: Cl.NC1=Nc2ccc(Cl)cc2CN1
EXPERIMENTAL SYSTEM: D(4) dopamine receptor (Homo sapiens)
RESULT: 5.8 µM

----------
Target: 5-hydroxytryptamine receptor 3A (Mus musculus)
Sequence (P23979 whole entry): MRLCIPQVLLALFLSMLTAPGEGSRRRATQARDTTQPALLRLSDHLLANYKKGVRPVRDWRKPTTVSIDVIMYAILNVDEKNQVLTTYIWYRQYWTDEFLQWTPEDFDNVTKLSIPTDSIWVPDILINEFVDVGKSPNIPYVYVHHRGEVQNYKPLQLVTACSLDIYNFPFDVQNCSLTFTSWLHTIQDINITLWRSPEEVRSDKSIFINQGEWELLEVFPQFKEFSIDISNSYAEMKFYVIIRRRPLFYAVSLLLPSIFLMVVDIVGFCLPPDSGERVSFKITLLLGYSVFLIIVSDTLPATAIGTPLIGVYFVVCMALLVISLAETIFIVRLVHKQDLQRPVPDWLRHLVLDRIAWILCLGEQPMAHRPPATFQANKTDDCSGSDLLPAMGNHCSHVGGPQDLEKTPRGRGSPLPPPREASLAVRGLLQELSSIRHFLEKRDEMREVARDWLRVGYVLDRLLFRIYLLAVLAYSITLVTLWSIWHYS
Assay: Antagonist activity at mouse 5-HT3A receptor expressed in Xenopus oocytes assessed as reduction of 5HT-induced current by two-electrode voltage clamp technique
Type: cell-based, Oocyte
pIC50: −log10 of the molar value.

SMILES STR: Cl.NC1=Nc2ccc(Cl)cc2CN1
pIC50: 6.59
